EXPERIMENTAL_DETAILS: Octanol/water distribution coefficient, logD of the compound at pH 7.4 sonicated for 30 mins followed by 24 hrs shaking
Assay type: physicochemical
VALUE_KIND: logD at 24.5 h

cpd_smiles=Cc1cccnc1-c1nsc(Nc2ccc(N3CCCC3)cn2)n1 value_kind="logD at 24.5 h" assay_value=2.65

====

We begin with a simple list: items and their reported remaining at 1 h, 3 µM.
EXPERIMENTAL_DETAILS: Metabolic stability in human liver S9 fraction assessed as compound remaining at 3 uM measured at 60 mins by LC-MS/MS analysis
Type: ADME, subcellular
CONDITION: read-out: Stability
VALUE_KIND: remaining at 1 h, 3 µM (%)

cpd_smiles=Cc1cccnc1N(C)c1nc(-c2ccc(OC(C)C)cn2)ns1 unit_string=% assay_value=96
cpd_smiles=CC(C)Oc1ccc(-c2nsc(Nc3ncccc3N(C)C)n2)nc1 unit_string=% assay_value=86
cpd_smiles=Cc1nccnc1Nc1nc(-c2ccc(OC(C)C)cn2)ns1 unit_string=% assay_value=94
cpd_smiles=Cc1cccnc1Nc1nc(-c2ccc(OC3CC3)cn2)ns1 unit_string=% assay_value=76
cpd_smiles=Cc1cccnc1Nc1nc(-c2ccc(C#N)cn2)ns1 unit_string=% assay_value=66
cpd_smiles=Cc1ccnc(-c2nsc(Nc3ncccc3C(F)(F)F)n2)c1 unit_string=% assay_value=56
cpd_smiles=Cc1cccnc1Nc1nc(-c2cc(C(=O)N(C)C)ccn2)ns1 unit_string=% assay_value=89
cpd_smiles=Cc1cccnc1N(c1nc(-c2ccc(OC(C)C)cn2)ns1)C(C)C unit_string=% assay_value=79
cpd_smiles=Cc1cccnc1Nc1nc(-c2cnc(OC(C)C)cn2)ns1 unit_string=% assay_value=81
cpd_smiles=Cc1cccnc1Nc1nc(-c2ccc(C(=O)N(C)C)cn2)ns1 unit_string=% assay_value=97
cpd_smiles=CNc1cccnc1Nc1nc(-c2ccc(OC(C)C)cn2)ns1 unit_string=% assay_value=86
cpd_smiles=CC(C)c1ccnc(-c2nsc(Nc3ncccc3C(F)(F)F)n2)c1 unit_string=% assay_value=45
cpd_smiles=COc1ccc(Nc2nc(-c3ccccn3)cs2)nc1 unit_string=% assay_value=59
cpd_smiles=CN(C)c1cccnc1Nc1nc(-c2ccc(OC3CC3)cn2)ns1 unit_string=% assay_value=100
cpd_smiles=CC(C)Oc1ccc(-c2nsc(N(C)c3ncccc3C(C)C)n2)nc1 unit_string=% assay_value=32
cpd_smiles=CN1CCC(Oc2ccc(Nc3nc(-c4ccccn4)ns3)nc2)CC1 unit_string=% assay_value=88
cpd_smiles=CC(C)Oc1ccc(-c2nsc(Nc3cc(C(F)(F)F)c(C(C)C)cn3)n2)nc1 unit_string=% assay_value=100
cpd_smiles=Cc1cccnc1Nc1nc(-c2cc(C#N)c(OC(C)C)cn2)ns1 unit_string=% assay_value=100

====

Test system: P-glycoprotein (human)
EXPERIMENTAL_DETAILS: Efflux ratio of apparent permeability in MDCK-II cells expressing human P-glycoprotein gene at 10 uM measured at 2 hrs by LC-MS/MS analysis
Assay type: ADME, cell-based, Canis lupus familiaris
CONDITION: dog, MDCK-MDR1
VALUE_KIND: efflux ratio at 2 h, 10 µM

cpd_smiles=CC(=O)N(C)c1cc(C(F)(F)F)cnc1Nc1nc(-c2cc(C(C)C)ccn2)ns1 value_kind="efflux ratio at 2 h, 10 µM" assay_value=8.4
cpd_smiles=CC(=O)N(C)c1cc(C(F)(F)F)cnc1Nc1nc(-c2cc(OC(C)C)ccn2)ns1 value_kind="efflux ratio at 2 h, 10 µM" assay_value=15.2
cpd_smiles=CC(C)Oc1cnc(-c2nsc(Nc3ncccc3N3CCCC3=O)n2)cc1C(F)(F)F value_kind="efflux ratio at 2 h, 10 µM" assay_value=3.9
cpd_smiles=CC(=O)N(C)c1cc(C(F)(F)F)cnc1Nc1nc(-c2ccc(OC(C)C)cn2)ns1 value_kind="efflux ratio at 2 h, 10 µM" assay_value=4.1
cpd_smiles=CC(C)Oc1ccc(-c2nsc(Nc3ncccc3C(=O)N(C)C)n2)nc1 value_kind="efflux ratio at 2 h, 10 µM" assay_value=11
cpd_smiles=CC(=O)N(C)c1cccnc1Nc1nc(-c2cc(C(F)(F)F)c(OC(C)C)cn2)ns1 value_kind="efflux ratio at 2 h, 10 µM" assay_value=4.5
cpd_smiles=CC(C)Oc1cnc(-c2nsc(Nc3ncccc3N(C)C(=O)C3CC3)n2)cc1C(F)(F)F value_kind="efflux ratio at 2 h, 10 µM" assay_value=2.2
cpd_smiles=CC(C)Oc1ccc(-c2nsc(Nc3ncccc3C(N)=O)n2)nc1 value_kind="efflux ratio at 2 h, 10 µM" assay_value=4.6
